Measurement target: human muscarinic M4 receptor (Homo sapiens)
Construct: expressed in transfected cells
Sequence (P08173 1-479): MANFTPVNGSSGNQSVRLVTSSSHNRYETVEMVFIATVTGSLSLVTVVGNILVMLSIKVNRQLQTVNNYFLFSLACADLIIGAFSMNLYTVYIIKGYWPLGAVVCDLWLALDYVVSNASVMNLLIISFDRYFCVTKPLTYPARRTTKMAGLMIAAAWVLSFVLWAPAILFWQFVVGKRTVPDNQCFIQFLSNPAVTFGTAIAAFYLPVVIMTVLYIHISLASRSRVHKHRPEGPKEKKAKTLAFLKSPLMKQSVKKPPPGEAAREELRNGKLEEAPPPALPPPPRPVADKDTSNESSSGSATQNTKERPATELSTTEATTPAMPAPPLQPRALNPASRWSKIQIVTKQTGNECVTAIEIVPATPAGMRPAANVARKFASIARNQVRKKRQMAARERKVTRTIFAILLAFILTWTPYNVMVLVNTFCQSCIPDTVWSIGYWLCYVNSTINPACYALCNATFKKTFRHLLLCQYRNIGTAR
Measurement notes: Alphascreen Surefire phospho-ERK1/2 functional assay, M4
Type: cell-based
Protocol conditions: CHO cells stably expressing human M4, read-out: pEC50 M4 (converted)
Procedure: ERK1/2 phosphorylation is a downstream consequence of both Gq/11 and Gi/o protein coupled receptor activation, making it highly suitable for the assessment of M1, M3 (Gq/11 coupled) and M2, M4 receptors (Gi/o coupled), rather than using different assay formats for different receptor subtypes. […] Plates were incubated for 2 h with gentle agitation in the dark and then read on a PHERAstar plate reader. pEC50 and Emax figures were calculated from the resulting data for each receptor subtype.
Readout name: EC50

{"Molecule": "CCOC(=O)N1C2CCCC1CC(N1CCC3(CC1)CNC(=O)O3)C2 (single isomer, unassigned) [Example 5-4 Isomer 1]", "EC50": "> 20 µM"}
{"Molecule": "CCOC(=O)N1C2CCC1CC(N1CCC3(CC1)OC(=O)NC3C)C2 (single isomer, unassigned) [Example 2-15 Isomer 1]", "EC50": "> 20 µM"}

Looking up CCOC(=O)N1CC2CCC(C1)C2N1CCC2(CC1)CNC(=O)C2 (single isomer, unassigned) [Example 4-1 Isomer 2] , I see its EC50 listed as > 20 µM

Looking up O=C1CC2(CCN(C3CC4CCC(C3)N4C(=O)OCCF)CC2)CN1 (single isomer, unassigned) [Example 2-3 Isomer 2] , I see its EC50 listed as > 20 µM

Looking up CCOC(=O)N1C2CCCC1CC(N1CCC3(CC1)CNC(=O)C3)C2 (single isomer, unassigned) [Example 5-1 Isomer 2] , I see its EC50 listed as > 20 µM

Looking up CSC(=O)N1C2CCC1CC(N1CCC3(CC1)CNC(=O)C3)C2 (single isomer, unassigned) [Example 2-34 Isomer 1] , I see its EC50 listed as > 20 µM

====

Measurement target: human muscarinic M4 receptor (Homo sapiens, UniProt P08173)
Construct: expressed in transfected cells
Measurement notes: Alphascreen Surefire phospho-ERK1/2 functional assay, M4
Assay type: cell-based
Protocol conditions: CHO cells stably expressing human M4, read-out: pEC50 M4 (converted)
Readout name: EC50

{"Compound": "CCOC(=O)N1C2CCC1CC(N1CCC3(CC1)CC(=O)N(CC(C)C)C3)C2 (single isomer, unassigned) [Example 2-27 Isomer 2]", "Readout name": "EC50", "Reported": "> 20000 nM"}

Looking up CCOC(=O)N1C2CCCC1CC(N1CCC3(CC1)CNC(=O)C3)C2 (single isomer, unassigned) [Example 5-1 Isomer 1] , I see its EC50 listed as 251 nM

Looking up CC#CCOC(=O)N1[C@@H]2CCC[C@H]1CC(N1CCC3(CC1)CNC(=O)C3)C2 (mixture of isomers) [Example 5-3] , I see its EC50 listed as 31.6 nM

Looking up [2H]C([2H])([2H])COC(=O)N1C2CCC1CC(N1CCC3(CC1)CNC(=O)C3)C2 (single isomer, unassigned) [Example 2-31 Isomer 2] , I see its EC50 listed as 25.1 nM
